experiment: BET inhibitor-based combinations targeting novel dependencies in MECOM-rearranged (r) AML: AML-191 cell line (AID 2202236;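 also: plate controls were vehicle wells for no effect and wells without cells for full effect; nearly all actives have a fitted effect of over 35% in size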); details: AML-191 viability, CellTiter-Glo luminescence, 48 h; series mostly up to 46 µM
Results filed as inconclusive are left out. Active and inactive are the calls of the source. Calls follow the shape of the dose curve; as a rule, active = well fitted inhibition curve with a large enough effect; inconclusive = small, poorly fitted or top-dose-only effect; inactive = flat fitted curve, though single readings scatter.
measurement kind: viability (% of control)

* CN[C@@H](C)[C@H]1[C@H](O)C[C@@]2(C)[C@@H]3CC[C@H]4C(C)(C)[C@@H](NC)CC[C@@]45C[C@@]35CC[C@]12C | 95.8% [at 8.46 µM] (inactive)
* CCN(CCO)CCCC(C)Nc1ccnc2cc(Cl)ccc12 (configuration not stated) | 74.5% [at 5.12 µM] (inactive)
* O=C(O)c1cn(C2CC2)c2cc(N3CCNCC3)c(F)cc2c1=O | 102% [at 8.46 µM] (inactive)
* Cn1c(CNc2ccc(C(=N)N)cc2)nc2cc(C(=O)N(CCC(=O)O)c3ccccn3)ccc21 | 101% [at 0.315 µM] (inactive)
* CCN(CC)CCCC(C)Nc1ccnc2cc(Cl)ccc12 (configuration not stated) | 95.1% [at 8.46 µM] (inactive)
* O=P(O)(O)C(O)(Cn1ccnc1)P(=O)(O)O | 112% [at 5.12 µM] (inactive)
* CC(C)NC(=O)N1CC[C@H](N=C2Nc3cc(F)ccc3N(CC(F)F)c3ccc(Cl)cc32)C1 | 98.9% [at 8.46 µM] (inactive)

---

target: Cellular tumor antigen p53 (Homo sapiens) (UniProt P04637); assay: Primary qHTS for small molecule compounds that upregulate eGFP-tagged delta133p53alpha (in N-terminal) cells. (AID 2060322); conditions: NCI-H358 eGFP-delta133p53alpha fluorescence, 24 h; hits give high values;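 also: cells pre-induced with doxycycline then dosed without doxycycline; 0% = DMSO vehicle and 100% = reference activator; nearly all actives have a fitted effect of over 75% in size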
Sequence (P04637 whole entry, looked up): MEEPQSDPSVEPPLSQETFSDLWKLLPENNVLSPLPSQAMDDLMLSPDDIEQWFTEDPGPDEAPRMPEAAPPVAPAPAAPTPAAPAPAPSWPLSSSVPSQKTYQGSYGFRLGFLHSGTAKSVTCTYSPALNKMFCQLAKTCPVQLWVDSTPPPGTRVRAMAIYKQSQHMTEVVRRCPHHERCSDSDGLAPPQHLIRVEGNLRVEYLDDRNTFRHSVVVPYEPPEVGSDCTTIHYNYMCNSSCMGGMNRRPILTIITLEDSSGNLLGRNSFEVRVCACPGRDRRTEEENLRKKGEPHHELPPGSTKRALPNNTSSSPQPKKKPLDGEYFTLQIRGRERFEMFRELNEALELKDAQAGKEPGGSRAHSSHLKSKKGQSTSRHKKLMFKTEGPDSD
Records with an inconclusive call do not appear.
Below, each of the molecules is paired with its reported activation value.
measurement kind: activation (%)

- CNC(=O)c1cc(Oc2ccc(NC(=O)Nc3ccc(Cl)c(C(F)(F)F)c3)c(F)c2)ccn1: 8.41
- OC[C@H]1O[C@@H](OCCc2ccc(O)cc2)[C@H](O[C@@H]2OC[C@](O)(CO)[C@H]2O)[C@@H](O)[C@@H]1O: 1.79
- CCC(=O)O[C@]1(C(=O)COC)[C@@H](C)C[C@H]2[C@@H]3CCC4=CC(=O)C=C[C@]4(C)C3(F)[C@@H](O)C[C@@]21C (stereo partly specified): -4.18
- C=CC(C)(C)C1(CC2NC(=O)C3CCCN3C2=O)C(=O)Nc2cc3c(cc21)C=CC(C)(C)O3 (stereo unspecified): 6.87
- O=C1C(CCS(=O)c2ccccc2)C(=O)N(c2ccccc2)N1c1ccccc1 (stereo unspecified): 15.1
- O=C(/C=C/c1ccc(O)cc1)OCC1=C[C@@H](O)[C@@H]2C=CO[C@@H](O[C@@H]3O[C@H](CO)[C@@H](O)[C@H](O)[C@H]3O)[C@H]12: -9.16
- CC1(C)CC[C@]2(C(=O)O[C@@H]3O[C@H](CO)[C@@H](O)[C@H](O)[C@H]3O)CC[C@]3(C)C(=CCC4[C@@]5(C)C[C@H](O)[C@H](O[C@@H]6OC[C@@H](O)[C@H](O)[C@H]6O)[C@@](C)(CO)C5CC[C@]43C)C2C1 (stereo partly specified): 11.6
- Nc1ccc(C(=O)N2CC3CC(CN(Cc4ccccc4)C3)C2)cc1: -6.21
- C=CCN1C[C@H](C(=O)N(CCCN(C)C)C(=O)NCC)C[C@@H]2c3cccc4[nH]cc(c34)C[C@H]21: -8.37
- COc1cc(CO)cc(OC)c1O[C@@H]1O[C@H](CO)[C@@H](O)[C@H](O)[C@H]1O: -2.68
- NOCC(=O)O: -16.6
- CCOC(=O)c1ccc(OC(=O)CCCCCN=C(N)N)cc1: 31
- S=C(S)OC1CC2CC1C1CCCC21 (stereo unspecified): -23.4
- OC1CCC(Nc2ncc3nc(Nc4c(F)cc(F)cc4F)n([C@@H]4CCOC4)c3n2)CC1 (stereo partly specified): 52.2
- COc1c2c(c(C)c3c1C(=O)OC3)OC1(C)CC(O)C(C(C)(C)O)C(C)(CCC(=O)O)C1C2 (stereo unspecified): 8.4
- COc1ccc([C@@H]2N[C@H](C(=O)O)Cc3c2[nH]c2ccccc32)cc1CN1CCN(c2ccccc2F)CC1: 26.7
- COC1CC(O[C@H]2CC[C@@]3(C)C(CCC4C3[C@H](OC(C)=O)[C@@H](OC(=O)/C=C/c3ccccc3)[C@]3(C)C(C(C)=O)CC[C@]43O)C2)OC(C)C1OC1CC(OC)C(OC2CC(OC)C(OC3OC(C)C(OC4OC(CO)C(O)C(O)C4O)C(OC)C3O)C(C)O2)C(C)O1 (stereo partly specified): -13
- O=C(c1c2ccccc2cc2ccccc12)N1CCC(N2CCC[C@@H](C(=O)N3CCOCC3)C2)CC1: -1.91
- N[C@@]1(C(=O)O)CS(=O)(=O)[C@H]2[C@H](C(=O)O)[C@H]21: -21.5
- N[C@@]1(C(=O)O)CC[C@H]2[C@H](C(=O)O)[C@H]21: -12.3
- CC1(C(=O)O)CC[C@]2(C(=O)OC3OC(CO)C(O)C(O)C3O)CC[C@]3(C)C(=CCC4[C@@]5(C)CC[C@H](OC6OCC(O)C(O)C6OC6OC(CO)C(O)C(O)C6O)C(C)(C)C5CC[C@]43C)C2C1 (stereo partly specified): -5.34
- C[C@H]1[C@@H](O)[C@H](O)C2[C@]3(C)C([C@@H](O)[C@H]4OC(=O)[C@@H]1[C@@]24C)[C@](C)(O)C=C[C@H]3O[C@@H]1O[C@H](CO)[C@@H](O)[C@H](O)[C@H]1O (stereo partly specified): 0.893
- CC1CCCC2OC2C(=O)c2c(O)cc(O)cc2CC(=O)O1 (stereo unspecified): 16
- C[C@]1(CO)CCC[C@]2(C)C3=C(CCC12)COC3 (stereo partly specified): -8.04
- CC1(C)CC[C@]2(C(=O)O[C@@H]3O[C@H](CO[C@@H]4O[C@H](CO)[C@@H](O)[C@H](O)[C@H]4O[C@@H]4O[C@H](CO)[C@@H](O)[C@H](O)[C@H]4O)[C@@H](O)[C@H](O[C@@H]4O[C@H](CO)[C@@H](O)[C@H](O)[C@H]4O)[C@H]3O)CC[C@]3(C)C(=CCC4[C@@]5(C)CC[C@@H](O)[C@@](C)(C(=O)O[C@@H]6O[C@H](CO)[C@@H](O)[C@H](O)[C@H]6O)C5CC[C@]43C)[C@@H]2C1 (stereo partly specified): -7.63
- COc1ccc(C(=O)N(CCC(C)C)Cc2nc(C)c(C)n2Cc2ccccc2C)c(OC)c1: 11.5
- C=C1CC/C=C(/CO)C(=O)C[C@@H]2[C@@H]1C[C@@]2(C)COC(C)=O: 11.5
- CC(C)(CC(=O)N1CCCC1)NCC(=O)N1C[C@@H](F)C[C@H]1C#N: 0.333
- O=C(O)C1=CCCNC1: -16.6
- C/C=C/C=C/C=C/C(=O)O[C@@H]1C=C(CO)C(O)(C(=O)O)[C@@]2(C)CCCC(C)(C)[C@H]12 (stereo partly specified): -9.92
- CCCCCCCCCCC/C=C\C(C)(C)/C=C\CCCC(=O)O: -22.9

Where these numbers come from: PubChem BioAssay (NCATS)
